Data origin: ChEMBL document CHEMBL3988442

# subjectOfTest: Ubiquitin-activating enzyme e1, putative (Leishmania donovani (strain BPK282A1)) (UniProt E9BSI1)
# Sequence (whole entry): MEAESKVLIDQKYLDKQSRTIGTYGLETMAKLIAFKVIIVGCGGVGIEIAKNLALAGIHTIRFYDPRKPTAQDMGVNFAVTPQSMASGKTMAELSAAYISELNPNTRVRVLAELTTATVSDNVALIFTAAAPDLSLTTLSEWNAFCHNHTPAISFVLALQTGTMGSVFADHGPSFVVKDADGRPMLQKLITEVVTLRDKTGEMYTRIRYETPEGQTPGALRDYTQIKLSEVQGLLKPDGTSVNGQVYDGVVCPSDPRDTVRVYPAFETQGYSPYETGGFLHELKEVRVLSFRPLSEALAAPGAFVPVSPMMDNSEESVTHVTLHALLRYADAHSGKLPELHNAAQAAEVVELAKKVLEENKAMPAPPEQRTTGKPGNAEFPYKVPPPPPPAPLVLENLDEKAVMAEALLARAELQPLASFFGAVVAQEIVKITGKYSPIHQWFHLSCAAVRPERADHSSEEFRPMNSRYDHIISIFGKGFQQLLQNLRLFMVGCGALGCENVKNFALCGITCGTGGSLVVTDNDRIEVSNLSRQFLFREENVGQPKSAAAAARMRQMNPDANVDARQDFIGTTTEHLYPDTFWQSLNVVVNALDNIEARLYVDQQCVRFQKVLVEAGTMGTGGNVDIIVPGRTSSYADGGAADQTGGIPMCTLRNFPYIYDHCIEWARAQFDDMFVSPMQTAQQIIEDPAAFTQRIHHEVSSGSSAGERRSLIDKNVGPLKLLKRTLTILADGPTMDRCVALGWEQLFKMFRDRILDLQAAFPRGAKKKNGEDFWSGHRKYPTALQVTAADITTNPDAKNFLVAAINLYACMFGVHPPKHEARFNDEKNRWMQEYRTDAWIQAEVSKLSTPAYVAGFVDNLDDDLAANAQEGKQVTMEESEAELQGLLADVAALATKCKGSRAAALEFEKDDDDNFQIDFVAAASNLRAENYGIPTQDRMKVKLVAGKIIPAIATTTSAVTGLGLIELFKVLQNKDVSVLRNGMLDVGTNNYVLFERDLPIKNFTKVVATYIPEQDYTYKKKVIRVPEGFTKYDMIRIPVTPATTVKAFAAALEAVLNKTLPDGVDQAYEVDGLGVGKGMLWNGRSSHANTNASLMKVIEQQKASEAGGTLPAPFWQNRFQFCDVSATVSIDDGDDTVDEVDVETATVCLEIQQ
# measurementProtocol: Leishmania donovani Ubiquitin Activating Enzyme (LdE1)
# Assay type: functional
# Parameters: scale not given: direction of the effect not stated beside the values
# testConditions: 30 µM
Potency and affinity values are given separately.
Overview of reported Percent Effect across a group of compounds:
Report the figure in % without appending any unit label.

Check out these entries, answers already filled in.
Problem: Fill in: Percent Effect of Cc1ncc2c(n1)CN(CCCc1nc3ccccc3o1)CC2 is ___
Solution: 10.7

Problem: Give its Percent Effect value. Item: Cn1cccc1C(=O)N1CCCC2(CCN(CCN3CCCC3)C2=O)C1 (centres undefined)
Solution: 2.6

Problem: Entry under review: CNc1cc2c(nn1)CCN(C(=O)c1ccoc1)C2 . Reported Percent Effect?
Solution: 7.79

Field: next compound
Problem: Requested read-out: Percent Effect. Entry: O=C(c1ccc[nH]1)N1C[C@H]2CC[C@@H]1CN(c1ncccn1)C2
Solution: 5.2
